tested on: human Factor 11 mRNA; experiment: Dose-dependent inhibition of human Factor 11 in HepB3 cells, lipofectin (Example 7); type: cell-based; conditions: 37.5 nM, ~16 hours
I would appreciate it if you labelled entries 1 when percent inhibition of Factor 11 mRNA relative to untreated control cells is 70% or higher, otherwise -1.

Substance: 416825 (antisense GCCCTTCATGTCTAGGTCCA; 5-10-5 gapmer, further chemistry not given here) [compound 416825]
Group Label: -1
//
Substance: 416892 (antisense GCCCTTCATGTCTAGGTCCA; 3-14-3 chimeric gapmer, further chemistry not given here) [compound 416892]
Group Label: 1

Request: Could you tell me if the measured percent inhibition of Factor 11 mRNA relative to untreated control cells of 417003 (antisense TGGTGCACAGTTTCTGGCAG; 2-13-5 gapmer chemistry, further chemistry not given here) [compound 417003] reaches 70% or more?
Response: -1

Request: Given 416858 (antisense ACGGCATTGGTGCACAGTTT; 5-10-5 gapmer, further chemistry not given here) [compound 416858] , state whether its percent inhibition of Factor 11 mRNA relative to untreated control cells is at least 70%.
Response: 1
